Recorded values, source the supplement of paper PMC4649846.

- Test system: MDA-MB-231
- test-parameters: incubation time: 72 h; siRNA: siBRCA1
parameter-measured: IC50 of cell viability

# example entries with known answers
Cc1ccc(Nc2nccc(N(C)c3ccc4c(C)n(C)nc4c3)n2)cc1S(N)(=O)=O :: > 4170 nM
CCC1(c2ccc(N)cc2)CCC(=O)NC1=O (configuration not stated) [Aminoglutethimide] :: > 4170 nM
O=NN(CCCl)C(=O)NC1CCCCC1 :: > 4170 nM
CC(C)C(=O)Nc1ccc([N+](=O)[O-])c(C(F)(F)F)c1 [Flutamide] :: > 4170 nM
NC1(c2ccc(-c3nc4ccn5c(=O)[nH]nc5c4cc3-c3ccccc3)cc2)CCC1 :: > 4170 nM
Oc1ncnc2[nH]ncc12 :: > 4170 nM
S=P(N1CC1)(N1CC1)N1CC1 :: > 4170 nM
CC1(C)NC(=O)N(c2ccc([N+](=O)[O-])c(C(F)(F)F)c2)C1=O [Nilutamide] :: > 4170 nM
Cc1c(N)nc([C@H](CC(N)=O)NC[C@H](N)C(N)=O)nc1C(=O)N[C@H](C(=O)N[C@H](C)[C@@H](O)[C@H](C)C(=O)N[C@H](C(=O)NCCc1nc(-c2nc(C(=O)NCCC[S+](C)C)cs2)cs1)[C@@H](C)O)[C@@H](OC1OC(CO)C(O)C(O)C1OC1OC(CO)C(O)C(OC(N)=O)C1O)c1cnc[nH]1 (some centres not stated) :: > 4170 nM
Clc1ccc(C(c2ccccc2Cl)C(Cl)Cl)cc1 (configuration not stated) :: > 4170 nM

State the recorded IC50 of cell viability for every item in the following list.
1. COc1cc2c(Oc3ccc(NC(=O)C4(C(=O)Nc5ccc(F)cc5)CC4)cc3F)ccnc2cc1OCCCN1CCOCC1
2. O=C(O)CCCc1ccc(N(CCCl)CCCl)cc1
3. NCC(=O)CCC(=O)O
4. CC(=O)O[C@@]12CO[C@@H]1C[C@H](O)[C@@]1(C)C(=O)[C@H](O)C3=C(C)[C@@H](OC(=O)[C@H](O)[C@@H](NC(=O)OC(C)(C)C)c4ccccc4)C[C@@](O)([C@@H](OC(=O)c4ccccc4)[C@H]21)C3(C)C
5. COc1c(C)cnc(Cn2cnc3c(Cl)nc(N)nc32)c1C
6. CN1CCN(CCOc2cc(OC3CCOCC3)c3c(Nc4c(Cl)ccc5c4OCO5)ncnc3c2)CC1
7. CC(C)(C)NC(=O)[C@H]1CC[C@H]2[C@@H]3CC[C@H]4NC(=O)C=C[C@]4(C)[C@H]3CC[C@]12C [Finasteride]

["503 nM", "> 4170 nM", "> 4170 nM", "2.71 nM", "869 nM", "652 nM", "> 4170 nM"]

* * *

- Test system: MDA-MB-231
- test-parameters: incubation time: 72 h; siRNA: siBRCA1
parameter-measured: IC50 of cell viability

Please review the following examples before continuing.
CCNC(=O)CCC/C=C\C[C@@H]1[C@@H](/C=C/[C@@H](O)CCc2ccccc2)[C@H](O)C[C@@H]1O [Bimatoprost] :: > 4.17 µM
Cn1cc(C2=C(c3cn(C4CCN(Cc5ccccn5)CC4)c4ccccc34)C(=O)NC2=O)c2ccccc21 [Enzastaurin] :: > 4.17 µM
C[C@]1(O)C[C@@H](c2nc(-c3ccc4ccc(-c5ccccc5)nc4c3)c3c(N)nccn32)C1 [OSI-906] :: > 4.17 µM
C[C@H]1C[C@@H]2[C@H]([C@@H](O)C[C@@]3(C)[C@H]2CC[C@]3(O)C(=O)CO)[C@@]2(C)C=CC(=O)C=C12 [Methylprednisolone] :: > 4.17 µM
COc1cc2ncnc(Nc3ccc(F)c(Cl)c3)c2cc1OCCCN1CCOCC1 [Gefitinib] :: > 4.17 µM

I'm hoping you can list IC50 of cell viability for every molecule here, please.
1. CCCCCOC(=O)Nc1nc(=O)n([C@@H]2O[C@H](C)[C@@H](O)[C@H]2O)cc1F [Capecitabine]
2. COC1=CC(c2cc3ccccc3[nH]2)=N/C1=C\c1[nH]c(C)cc1C [Obatoclax]
3. COc1cc(OC2CCN(C)CC2)ccc1Nc1ncc2c(n1)n(C1CCCC1)c(=O)n2C [AZ 3146]
4. CC(=O)Nc1ccc(C(=O)Nc2ccccc2N)cc1 [CI-994]
5. C[C@@H](C(=O)O)c1ccc(-c2ccccc2)c(F)c1 [Tarenflurbil]
6. O=S(=O)(c1cccc2cnccc12)N1CCCNCC1 [Fasudil]
7. CN(N=O)C(=O)N[C@@H](C=O)[C@@H](O)[C@H](O)[C@H](O)CO [Streptozocin]

1. > 4.17 µM
2. 0.399 µM
3. > 4.17 µM
4. > 4.17 µM
5. > 4.17 µM
6. > 4.17 µM
7. > 4.17 µM

Go through the list and state IC50 of cell viability for each entry.
1. C#Cc1cccc(Nc2ncnc3cc(OC)c(OCCCCCCC(=O)NO)cc23)c1 [CUDC-101]
2. Oc1ncc(N(CCCl)CCCl)c(O)n1 [Uracil mustard]
3. Nc1ncn([C@@H]2O[C@H](CO)[C@@H](O)[C@H]2O)c(=O)n1 [Azacitidine]

["0.433 µM", "> 4.17 µM", "> 4.17 µM"]

Quick request: IC50 of cell viability for each listed item, please.
1. CN(C)/N=N/c1[nH]cnc1C(N)=O [Dacarbazine]
2. CO[C@@]12[C@H](COC(N)=O)C3=C(C(=O)C(C)=C(N)C3=O)N1C[C@@H]1N[C@@H]12 [Mitomycin C]
3. N#CC[C@H](C1CCCC1)n1cc(-c2ncnc3[nH]ccc23)cn1 [Ruxolitinib]

1.33 µM
> 4.17 µM
> 4.17 µM
